target: CB1 (Homo sapiens, UniProt P21554); experiment: β-arrestin recruitment assay (PathHunter CHO-K1); format: cell-based
Sequence (P21554 whole entry): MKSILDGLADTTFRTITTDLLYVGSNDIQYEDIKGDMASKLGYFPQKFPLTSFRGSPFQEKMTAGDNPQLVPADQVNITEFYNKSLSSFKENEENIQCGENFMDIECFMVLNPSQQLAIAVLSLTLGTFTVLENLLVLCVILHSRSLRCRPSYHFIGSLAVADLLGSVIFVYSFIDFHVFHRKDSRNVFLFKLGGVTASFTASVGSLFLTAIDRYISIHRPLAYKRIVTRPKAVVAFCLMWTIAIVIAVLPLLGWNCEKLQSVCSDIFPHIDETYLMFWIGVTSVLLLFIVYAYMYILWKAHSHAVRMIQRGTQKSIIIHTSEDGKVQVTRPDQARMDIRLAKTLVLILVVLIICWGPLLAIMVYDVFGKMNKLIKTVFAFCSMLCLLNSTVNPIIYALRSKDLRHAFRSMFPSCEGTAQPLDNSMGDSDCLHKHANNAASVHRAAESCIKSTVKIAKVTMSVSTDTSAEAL
# EC50 annotations

>>> print(df.to_string())
                                   molecule  reported_metric  result
0  CC(C)(C)NC(=O)c1nn(-c2ccc(F)cc2F)c2c1C1CCC2C1 (centres unmarked)             EC50  384 nM

Could you now look at the following molecule, please?
Lab note: O=C(NCC1CCOCC1)c1cnc(Nc2ccc(Cl)cc2Cl)nc1C(F)(F)F [GW842166X] gave EC50 of > 10000 nM

###

biological target: mouse CB2 receptor (Mus musculus); construct: host or cells: PathHunter CHO-K1; test: β-arrestin recruitment assay (PathHunter CHO-K1); format: cell-based
Sequence (P47936 whole entry): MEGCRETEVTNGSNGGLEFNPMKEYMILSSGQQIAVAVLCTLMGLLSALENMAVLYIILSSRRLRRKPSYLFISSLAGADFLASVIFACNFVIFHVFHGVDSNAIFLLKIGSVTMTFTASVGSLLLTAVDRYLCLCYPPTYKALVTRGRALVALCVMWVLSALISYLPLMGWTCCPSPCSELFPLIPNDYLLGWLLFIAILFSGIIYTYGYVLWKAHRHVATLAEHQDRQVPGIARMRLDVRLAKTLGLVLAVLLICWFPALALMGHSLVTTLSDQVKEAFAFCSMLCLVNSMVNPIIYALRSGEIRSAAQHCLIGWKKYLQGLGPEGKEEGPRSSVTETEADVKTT
reported.metric: EC50 (µM)
Supply the numeric figure in µM, leaving out any unit text.

In [3]: df
Out[3]:
                                   compound                experimental_system  recorded_number
0  CC(C)(C)NC(=O)c1nn(-c2ccc(F)cc2F)c2c1C1CCC2C1 (centres unmarked)  mouse CB2 receptor (Mus musculus)           0.0008

Could you now consider this next compound?
Short answer for O=C(NCC1CCOCC1)c1cnc(Nc2ccc(Cl)cc2Cl)nc1C(F)(F)F [GW842166X] : EC50 was 0.235

###

target: mouse CB1 receptor (Mus musculus); assay: β-arrestin recruitment assay (PathHunter CHO-K1)
Sequence (P47746 whole entry): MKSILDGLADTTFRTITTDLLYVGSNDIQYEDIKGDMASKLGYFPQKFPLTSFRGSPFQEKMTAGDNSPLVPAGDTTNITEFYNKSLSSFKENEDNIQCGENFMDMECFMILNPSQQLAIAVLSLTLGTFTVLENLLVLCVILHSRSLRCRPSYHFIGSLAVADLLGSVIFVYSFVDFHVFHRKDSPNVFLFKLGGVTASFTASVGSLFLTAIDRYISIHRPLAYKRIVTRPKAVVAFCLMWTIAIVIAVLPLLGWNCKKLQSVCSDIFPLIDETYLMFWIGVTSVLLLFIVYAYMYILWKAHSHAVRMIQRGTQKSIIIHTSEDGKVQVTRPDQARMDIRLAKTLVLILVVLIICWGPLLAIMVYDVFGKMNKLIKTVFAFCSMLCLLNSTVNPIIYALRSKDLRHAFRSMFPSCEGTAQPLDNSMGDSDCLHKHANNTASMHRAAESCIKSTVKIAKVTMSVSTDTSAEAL
reported.metric: pEC50
# reply with the number alone; pEC50 is -log10 of concentration in mol/L

Form: compound = CC(C)(C)NC(=O)c1nn(-c2ccc(F)cc2F)c2c1C1CCC2C1 (centres unmarked) ; pEC50 = 6.12

###

molecular target: rat CB2 receptor (Rattus norvegicus, UniProt Q9QZN9); assay: CB2 receptor internalization assay (conventional fluorescence microscopy); format: cell-based; design: expressed in transfected cells; conditions: fluorescence microscopy
Sequence (Q9QZN9 whole entry): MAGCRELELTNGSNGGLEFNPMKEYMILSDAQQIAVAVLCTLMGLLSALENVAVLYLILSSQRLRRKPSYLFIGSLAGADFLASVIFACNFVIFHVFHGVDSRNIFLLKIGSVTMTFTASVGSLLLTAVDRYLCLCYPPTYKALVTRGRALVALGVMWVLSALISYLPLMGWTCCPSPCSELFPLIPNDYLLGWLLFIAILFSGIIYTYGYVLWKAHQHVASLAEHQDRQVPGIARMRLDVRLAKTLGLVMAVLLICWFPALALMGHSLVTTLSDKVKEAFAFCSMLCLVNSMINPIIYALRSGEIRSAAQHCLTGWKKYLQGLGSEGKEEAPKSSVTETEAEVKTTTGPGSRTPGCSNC
Catalogue of receptor internalization efficacy relative to CP55,940, rat CB2 values
# output: numeric value plus its unit

>>> print(df.to_string())
                                   compound  result
0  CC(C)(CO)NC(=O)c1nn(-c2ccc(F)cc2F)c2c1C[C@H]1C[C@@H]21 [Compound 493]     58%
1  CC(C)(NC(=O)c1nn(-c2c[n+]([O-])ccn2)c2c1C[C@@H]1C[C@H]21)C(F)(F)F [Compound 919]     92%
2  O=C(N[C@H](CO)C1CCOCC1)c1nn(-c2c[n+]([O-])ccn2)c2c1C[C@H]1C[C@@H]21 [Compound 841]    105%

receptor internalization efficacy relative to CP55,940, rat CB2 on rat CB2 receptor (Rattus norvegicus, UniProt Q9QZN9) for O=C(NC1(C(F)(F)F)CCC1)c1nn(-c2c[n+]([O-])ccn2)c2c1C[C@@H]1C[C@H]21 [Compound 765] is 99%

###

biological target: hCB2 (Homo sapiens); experiment: β-arrestin recruitment assay (PathHunter CHO-K1); assay type: cell-based; design: host or cells: PathHunter CHO-K1
Sequence (P34972 whole entry): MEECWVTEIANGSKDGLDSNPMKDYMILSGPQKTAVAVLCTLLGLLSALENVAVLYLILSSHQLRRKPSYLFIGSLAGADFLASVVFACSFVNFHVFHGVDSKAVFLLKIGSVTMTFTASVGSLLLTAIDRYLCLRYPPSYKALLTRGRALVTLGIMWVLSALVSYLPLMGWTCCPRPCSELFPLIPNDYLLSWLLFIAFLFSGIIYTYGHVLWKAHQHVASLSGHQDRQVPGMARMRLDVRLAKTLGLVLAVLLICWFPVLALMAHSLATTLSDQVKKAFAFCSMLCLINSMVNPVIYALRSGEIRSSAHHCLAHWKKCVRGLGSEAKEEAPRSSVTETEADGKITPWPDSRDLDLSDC
Recorded measurements of pEC50, one per entry
Keep it numeric: pEC50 is minus log10 of the concentration in mol/L.

>>> df
                                   compound  reported_metric  recorded_number
0  CC(C)(C)NC(=O)c1nn(-c2ccc(F)cc2F)c2c1C1CCC2C1 (centres unmarked)            pEC50             8.92

Value of pEC50 reported for the compound O=C(NCC1CCOCC1)c1cnc(Nc2ccc(Cl)cc2Cl)nc1C(F)(F)F [GW842166X] is 6.08

Hey, just so you know, these numbers are from patent US20180252736A1.
